Collected Ki for Cannabinoid receptor 1 (Rattus norvegicus, UniProt P20272) across several studies; compounds listed below.
Measured Quantity: Ki (nM)

Sample answers from the record:
O=C1/C(=C/c2cccc(OCc3ccccc3)c2)N=C2SCCCN12
4220
Cc1c(C(=O)N(C)C2CCCCC2)nn(-c2ccc(Cl)cc2Cl)c1-c1ccc(Br)cc1
56
Cc1c(COCc2ccc(F)cc2)nn(-c2ccc(Cl)cc2Cl)c1-c1ccc(Cl)cc1
6
CCCCN(CC(=O)N1c2ccccc2-n2cccc2C1c1ccc(OC)cc1)C(=O)C(C)C (stereo not given)
124
Cc1c(C(=O)NCCO)nn(-c2ccc(Cl)cc2Cl)c1-c1ccc(Br)cc1
1120

I: CCCCN(CC(=O)N1c2ccccc2-n2cccc2C1c1ccc(OC)cc1)C(=O)c1ccccc1F (stereo not given)
II: COc1ccc(-c2c(Br)c(C(=O)NN3CCCCCC3)nn2-c2ccc(Cl)cc2Cl)cc1
Input line: // returns I or II , whichever has the lower Ki Provide the label of your selected option as the answer.
Output line: II
(II: 5.2 nM, I: 349 nM)

====

pKi: −log10 of the molar value.
Record set: pKi | Cannabinoid receptor 1 (Rattus norvegicus, UniProt P20272) | literature, multiple sources.
Measured Quantity: pKi

Please review the following examples before continuing.
O=C1/C(=C/c2cccc(OCc3ccc(F)cc3)c2)N=C2SCCCCN12
6.14
Cc1c(C(=O)NN2CCCCC2)nn(-c2ccc(Cl)cc2Cl)c1-c1ccc(C2CC2)cc1
8.52
Cc1c(C(=O)NN2CCCCCC2)nn(-c2ccc(Cl)cc2Cl)c1-c1ccc(Br)cc1
8.11
CCCCN(CC(=O)N1c2ccccc2-n2cccc2C1c1ccc(OC)cc1)C(=O)c1cc(Cl)cc(Cl)c1 (configuration not stated)
6.08
Cc1c(C(=O)NN2CCCCC2)nn(-c2ccc(Cl)cc2Cl)c1-c1ccccc1[N+](=O)[O-]
6.59

a: CCCCN(CC(=O)N1c2ccccc2-n2cccc2C1c1ccc(OC)cc1)C(=O)CC (configuration not stated)
b: Cc1c(C(=O)N2CCN(C)CC2)nn(-c2ccc(Cl)cc2Cl)c1-c1ccc(Br)cc1
c: Clc1ccc(-c2cnnn2-c2ccc(Cl)cc2)cc1
d: Clc1ccc(-c2cnnn2-c2ccc(Cl)cc2Cl)cc1
e: Cc1c(-c2cn(-c3ccccc3)cn2)nn(-c2ccccc2Cl)c1-c1ccc(Cl)cc1
Input line: Put the entries in order of pKi, starting with the largest number. Kindly provide the labels arranged according to the requested ordering.
Output line: e, b, a, d, c
(e: 7.72, b: 6.49, a: 6.27, d: 5.85, c: 5.16)

====

Here's a roundup of pKi values tested on Cannabinoid receptor 1 (Rattus norvegicus, UniProt P20272), taken from various published works.
Sequence (P20272 whole entry): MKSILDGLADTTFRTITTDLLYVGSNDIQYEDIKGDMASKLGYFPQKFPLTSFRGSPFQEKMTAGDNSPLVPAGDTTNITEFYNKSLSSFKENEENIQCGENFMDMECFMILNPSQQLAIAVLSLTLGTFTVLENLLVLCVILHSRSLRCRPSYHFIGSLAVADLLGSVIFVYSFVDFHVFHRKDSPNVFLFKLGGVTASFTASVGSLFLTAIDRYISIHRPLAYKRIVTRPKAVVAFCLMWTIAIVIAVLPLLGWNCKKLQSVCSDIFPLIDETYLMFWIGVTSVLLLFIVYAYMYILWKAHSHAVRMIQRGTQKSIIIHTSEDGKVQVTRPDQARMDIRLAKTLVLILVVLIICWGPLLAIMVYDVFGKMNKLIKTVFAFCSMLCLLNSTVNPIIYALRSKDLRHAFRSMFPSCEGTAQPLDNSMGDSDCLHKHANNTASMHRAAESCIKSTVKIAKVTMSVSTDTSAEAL
pKi: −log10 of the molar value.
Measured Quantity: pKi

COc1ccc(-c2c(F)c(C(=O)NN3CCCCC3)nn2-c2ccccc2Cl)cc1
7.74
Cc1c(C(=O)NN2CCCCC2)nn(-c2ccc([N+](=O)[O-])cc2)c1-c1ccc(Cl)cc1
6.96

1: CCCCN(CC(=O)N1c2ccccc2-n2cccc2C1c1ccc(OC)cc1)C(=O)c1ccccc1Cl (stereo not given)
2: Cc1c(-c2cn(C3CCOCC3)cn2)nn(-c2ccc(Cl)cc2Cl)c1-c1ccc(Cl)cc1
3: Cc1c(-c2cn(Cc3ccccc3)cn2)nn(-c2ccc(Cl)cc2Cl)c1-c1ccc(Cl)cc1
Input line: Task for the reader: rank each entry by its pKi, from the minimum upward. Order the labels as requested and list them.
Output line: 1, 2, 3
(1: 6.86, 2: 7.60, 3: 7.85)
